Entries annotated with measured self-cleavage
B1: Osa-1-4 twister ribozyme (parent)
chain: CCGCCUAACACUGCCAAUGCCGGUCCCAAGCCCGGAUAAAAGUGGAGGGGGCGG

variants of: B1; experiment: self-cleavage, relative activity (ratio to wild type); higher = more cleavage; co-transcriptional

Example results:
> print(dat)
                             entry.sequence  property.measured  result
1  CCGCCUAACACUGCGAAUGCCGGUCCCAAGCCCGGAUAAAGGUGGAGGGGGCGG [A41G C15G]      self-cleavage    0.28
2  CCGCCUAACACUGCCAAUGCCUGUCCCAAGCCCGGAUAAAAGUGGAGGGUGCGG [G22U G50U]      self-cleavage    0.75
3  CCGCCUAAUACUGCCAAUGCCGGUCCCAAGCCCGGAUAAAACUGGAGGGGGCGG [C9U G42C]      self-cleavage    0.04
4  CCGCCUAACACUGCCAAUGCCGGUCACAAGCCCGGACAAAAGUGGAGGGGGCGG [C26A U37C]      self-cleavage    0.07
5  CCGCCUAACACUGCCAAUGCAGGUCCCAAGCCCGGAUGAAAGUGGAGGGGGCGG [A38G C21A]      self-cleavage    0.78

// below: self-cleavage requested for another variant
Q: Request the reported self-cleavage associated with CCGCCUAACACUGCCAAUGCCGGUCCUAAGCCCGGAUAAAAGUGGAGGGGCCGG [C27U G51C]
Result: 0.04
